Property: pIC50; scope: individual compounds
molecular target: viral kinase pUL-97 (Human cytomegalovirus, UniProt P16788); construct: The pUL-97 gene was cloned into a baculovirus vector; GST (glutathione S-transferase) (N); made in house; host or cells: Sf9 insect cells, baculovirus; test: UL97 kinase assay on Immobilon plate; format: biochemical; conditions: inhibition of UL 97 kinase activity; class by IC50 / % inhibition at 10 μM or 100 μM; read-out: Activity Class [A, B, C]
Sequence (P16788 whole entry): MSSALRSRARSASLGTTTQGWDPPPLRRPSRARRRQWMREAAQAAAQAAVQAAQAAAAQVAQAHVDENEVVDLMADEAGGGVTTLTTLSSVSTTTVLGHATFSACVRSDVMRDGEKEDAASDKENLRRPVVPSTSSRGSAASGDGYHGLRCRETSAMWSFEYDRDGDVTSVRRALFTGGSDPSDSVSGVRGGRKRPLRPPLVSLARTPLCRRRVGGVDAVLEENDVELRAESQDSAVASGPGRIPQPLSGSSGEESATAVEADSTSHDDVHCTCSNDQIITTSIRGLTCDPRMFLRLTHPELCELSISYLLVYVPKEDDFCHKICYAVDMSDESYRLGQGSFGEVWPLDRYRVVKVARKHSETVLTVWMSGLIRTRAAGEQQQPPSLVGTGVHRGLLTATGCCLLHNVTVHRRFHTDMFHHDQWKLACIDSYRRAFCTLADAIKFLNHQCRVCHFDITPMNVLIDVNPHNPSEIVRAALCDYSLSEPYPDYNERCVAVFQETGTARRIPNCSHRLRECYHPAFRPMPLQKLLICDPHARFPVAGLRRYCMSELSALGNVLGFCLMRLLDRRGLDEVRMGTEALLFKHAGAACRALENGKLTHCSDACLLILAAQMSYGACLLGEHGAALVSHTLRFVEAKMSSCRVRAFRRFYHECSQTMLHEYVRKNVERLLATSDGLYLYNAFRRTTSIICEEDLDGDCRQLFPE
pIC50: −log10 of the molar value.

{"columns": ["SMILES", "pIC50"],
 "data": [
  ["Cc1ccc(-c2cncc(N3CCN(c4ccc(F)cc4)CC3)n2)cc1", "5.00 to 6.00"],
  ["CCOc1ccc(-c2cncc(N3CCN(c4ccc(C(C)=O)cc4)CC3)n2)cc1", "4.00 to 5.00"],
  ["COc1cccc(N2CCN(c3cncc(-c4ccc(C(F)(F)F)cc4)n3)CC2)c1", "5.00 to 6.00"],
  ["COc1ccc(N2CCN(c3cncc(-c4cccc(OC)c4)n3)CC2)cc1", "4.00 to 5.00"],
  ["CSc1ccc(-c2cncc(N3CCN(c4ccc(F)cc4F)CC3)n2)cc1", "5.00 to 6.00"],
  ["CC(=O)c1ccc(-c2cncc(N3CCN(c4cccc(C)c4C)CC3)n2)cc1", "4.00 to 5.00"],
  ["COc1ccccc1N1CCN(c2cncc(-c3ccccc3C(C)=O)n2)CC1", "4.00 to 5.00"],
  ["Fc1ccccc1N1CCN(c2cncc(-c3csc4ccccc34)n2)CC1", "4.00 to 5.00"]
]}

stdin: // pIC50 lookup, key: FC(F)(F)c1cccc(N2CCN(c3cncc(-c4ccccc4Oc4ccccc4)n3)CC2)c1
stdout: 4.00 to 5.00

stdin: // pIC50 lookup, key: COc1ccccc1N1CCN(c2cncc(-c3csc4ccccc34)n2)CC1
stdout: 4.00 to 5.00

stdin: // pIC50 lookup, key: Cc1ccc(N2CCN(c3cncc(-c4cccc5ccccc45)n3)CC2)cc1
stdout: 4.00 to 5.00

stdin: // pIC50 lookup, key: Cc1ccc(N2CCN(c3cncc(-c4csc5ccccc45)n3)CC2)cc1C
stdout: 4.00 to 5.00

stdin: // pIC50 lookup, key: COc1cccc(N2CCN(c3cncc(-c4cccc(C(C)=O)c4)n3)CC2)c1
stdout: 5.00 to 6.00

stdin: // pIC50 lookup, key: COc1ccc(-c2cncc(N3CCN(c4ccccn4)CC3)n2)cc1OC
stdout: 5.00 to 6.00

stdin: // pIC50 lookup, key: FC(F)(F)c1cccc(N2CCN(c3cncc(-c4ccc5ccccc5c4)n3)CC2)c1
stdout: 4.00 to 5.00

* * *

molecular target: viral kinase pUL-97 (Human cytomegalovirus, UniProt P16788); construct: The pUL-97 gene was cloned into a baculovirus vector; GST (glutathione S-transferase) (N); made in house; host or cells: Sf9 insect cells, baculovirus; assay: UL97 kinase assay on Immobilon plate; type: biochemical; conditions: inhibition of UL 97 kinase activity; class by IC50 / % inhibition at 10 μM or 100 μM; read-out: Activity Class [A, B, C]
Property: IC50; scope: individual compounds

Some compounds with known IC50 results, for comparison:
{"columns": ["SMILES", "QUANTITY_MEASURED", "RESULT"],
 "data": [
  ["COc1cccc(N2CCN(c3cncc(-c4ccc(C)cc4)n3)CC2)c1", "IC50", "1 to 10 µM"],
  ["OCc1ccc(-c2cncc(N3CCN(c4ccc(F)cc4)CC3)n2)cc1", "IC50", "1 to 10 µM"]
]}

Consider now this further compound.
stdin: // IC50 lookup, key: COc1ccc(N2CCN(c3cncc(-c4cccc(C)c4C)n3)CC2)cc1OC
stdout: 10 to 100 µM
